# Tested System: human plasma angiotensin converting enzyme (Homo sapiens)
# Construct: partially-purified human plasma angiotensin converting enzyme; from tissue; host or cells: human plasma
# Protocol: In vitro assay of inhibition of angiotensin converting enzyme
# Format: biochemical
# Protocol Conditions: [3H]benzoyl-Gly-His-Leu 80 nM, pH 8.0, 37° C., 15 minutes; I50 approximates Ki; listed as N-[L-1-carboxy-2-(carbopyrrolide)ethyl]-D,L-Ala-Pro
pIC50: −log10 of the molar value.
Property Label: pIC50

1) CC(N[C@@H](CC(=O)N1CCCC1)C(=O)O)C(=O)N1CCC[C@H]1C(=O)O (stereo partly shown): ~7.00

----------
# Tested System: human plasma angiotensin converting enzyme (Homo sapiens, UniProt P12821)
# Construct: partially-purified human plasma angiotensin converting enzyme; from tissue; host or cells: human plasma
# Sequence (P12821 30-1232 limits assumed): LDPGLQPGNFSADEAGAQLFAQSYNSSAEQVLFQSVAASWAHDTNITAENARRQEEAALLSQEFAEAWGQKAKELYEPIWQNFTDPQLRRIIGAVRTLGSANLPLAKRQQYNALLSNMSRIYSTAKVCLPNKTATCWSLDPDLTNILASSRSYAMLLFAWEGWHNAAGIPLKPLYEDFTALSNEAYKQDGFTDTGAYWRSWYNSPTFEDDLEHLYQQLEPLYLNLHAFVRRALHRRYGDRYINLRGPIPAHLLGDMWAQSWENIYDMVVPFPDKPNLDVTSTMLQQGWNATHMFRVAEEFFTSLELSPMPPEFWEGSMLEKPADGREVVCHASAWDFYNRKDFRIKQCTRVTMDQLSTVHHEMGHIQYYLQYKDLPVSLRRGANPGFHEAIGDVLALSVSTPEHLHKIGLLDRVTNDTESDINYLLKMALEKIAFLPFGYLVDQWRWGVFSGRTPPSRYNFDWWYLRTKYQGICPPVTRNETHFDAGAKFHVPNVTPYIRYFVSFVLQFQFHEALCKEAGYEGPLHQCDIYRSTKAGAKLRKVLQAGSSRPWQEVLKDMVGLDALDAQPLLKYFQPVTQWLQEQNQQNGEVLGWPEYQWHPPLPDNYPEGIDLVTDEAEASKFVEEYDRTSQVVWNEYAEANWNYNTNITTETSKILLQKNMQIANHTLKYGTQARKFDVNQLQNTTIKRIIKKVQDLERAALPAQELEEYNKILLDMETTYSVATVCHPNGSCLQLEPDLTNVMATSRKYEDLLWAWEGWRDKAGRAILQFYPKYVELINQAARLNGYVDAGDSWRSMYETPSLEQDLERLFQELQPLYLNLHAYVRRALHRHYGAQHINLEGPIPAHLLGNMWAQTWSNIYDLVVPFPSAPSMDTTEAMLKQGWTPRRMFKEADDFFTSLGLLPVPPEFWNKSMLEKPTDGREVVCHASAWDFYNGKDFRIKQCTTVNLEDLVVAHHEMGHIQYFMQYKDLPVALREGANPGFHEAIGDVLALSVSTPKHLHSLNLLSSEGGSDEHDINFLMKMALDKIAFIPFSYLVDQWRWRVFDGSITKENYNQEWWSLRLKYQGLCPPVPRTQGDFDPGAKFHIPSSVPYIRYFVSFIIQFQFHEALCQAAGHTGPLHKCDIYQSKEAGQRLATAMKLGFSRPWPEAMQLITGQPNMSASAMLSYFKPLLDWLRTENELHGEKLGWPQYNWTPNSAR
# Protocol: In vitro assay of inhibition of angiotensin converting enzyme
# Format: biochemical
# Protocol Conditions: [3H]benzoyl-Gly-His-Leu 80 nM, pH 8.0, 37° C., 15 minutes; I50 approximates Ki; listed as N-[L-1-carboxy-3-(carbo-4-iodoanilide)propyl]-D,L-Ala-L-Pro
pIC50: −log10 of the molar value.
Property Label: pIC50

1) CC(N[C@@H](CCC(=O)Nc1ccc(I)cc1)C(=O)O)C(=O)N1CCC[C@H]1C(=O)O (stereo partly shown) [Example 27]: ~9.00

----------
# Tested System: human plasma angiotensin converting enzyme (Homo sapiens)
# Construct: partially-purified human plasma angiotensin converting enzyme; from tissue; host or cells: human plasma
# Protocol: In vitro assay of inhibition of angiotensin converting enzyme
# Assay type: biochemical
# Protocol Conditions: [3H]benzoyl-Gly-His-Leu 80 nM, pH 8.0, 37° C., 15 minutes; I50 approximates Ki; listed as N-[L-1-carboxy-3-(carboanilide)propyl]-D,L-Ala-L-Pro
# Procedure: Compounds of this invention were assayed through the following protocol: 25 microliters of buffer (0.05M Hepes buffer, pH 8.0, plus 0.1M NaCl and 0.75M Na2 SO4) or 25 microliters of an inhibitor in buffer was added to the bottom of a 7 ml liquid scintillation vial. […] Extractable ^3 H was quantified by liquid scintillation counting. Substrate, in c.p.m., was quantified by scintillation counting of a vial containing 100 μl of buffered substrate in 5 ml of RIAfluor (New England Nuclear). […]
Property Label: IC50

1. CC(N[C@@H](CCC(=O)Nc1ccccc1)C(=O)O)C(=O)N1CCC[C@H]1C(=O)O (stereo partly shown): ~1 nM

----------
pIC50 values for the compounds below.
# Tested System: human plasma angiotensin converting enzyme (Homo sapiens, UniProt P12821)
# Construct: partially-purified human plasma angiotensin converting enzyme; from tissue; host or cells: human plasma
# Protocol: In vitro assay of inhibition of angiotensin converting enzyme
# Assay type: biochemical
# Protocol Conditions: [3H]benzoyl-Gly-His-Leu 80 nM, pH 8.0, 37° C., 15 minutes; I50 approximates Ki
pIC50: −log10 of the molar value.
Property Label: pIC50

1. CC(N[C@@H](CC(=O)N1CCCC1)C(=O)O)C(=O)N1CCC[C@H]1C(=O)O (stereo partly drawn) [Example 28]: 6.85
2. CC(N[C@@H](CCC(=O)Nc1ccc(I)cc1)C(=O)O)C(=O)N1CCC[C@H]1C(=O)O (stereo partly drawn) [Example 27]: 9.64
3. CC(N[C@@H](CCC(=O)Nc1ccccc1)C(=O)O)C(=O)N1CCC[C@H]1C(=O)O (stereo partly drawn) [Example 26]: 8.28

Data origin: patent US4766110A
